Source of measurements: PubChem BioAssay AID1508600

Would you mind telling me the reported z-score of each entry?
- test: Components of the Cytosolic LPS Sensing Pathway: Gene Identification via Genome-wide siRNA Screen;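 also: robust z of the log signal after scaling to non-targeting control siRNA wells of the plate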
- condition-notes: RAW264.7 macrophages, IL-1a HTRF, actives lie on both sides, screened at 100 nM (by protocol), cells primed 5 h with Pam3CSK4 first
The campaign covered roughly 53,000 sequences. About 3,700 (7%) were called active. The full list was thinned out, with actives kept by preference.
Enter the number alone.

The reported z-score of the sequence GGAUUUAGGCUACUUUUUCTT against Art4 was -0.387

The reported z-score of the sequence CCAUAAACUAUGAGUUUUGTT against Elovl7 was 2.4

The reported z-score of the sequence CGGACUCAGUCAUCAUUGCTT against Atf7 was -1.46

The reported z-score of the sequence CCCAUGUACCACUUUGUCATT against Olfr430 was -2.05

The reported z-score of the sequence GGAAAAUUGGACCAAUUUCTT against Ric3 was -0.339

The reported z-score of the sequence CCCAGCUUUUCAACUUGCUTT against Tmc4 was -1.19

====

- test: Components of the Cytosolic LPS Sensing Pathway: Gene Identification via Genome-wide siRNA Screen;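 also: robust z of the log signal after scaling to non-targeting control siRNA wells of the plate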
- condition-notes: RAW264.7 macrophages, IL-1a HTRF, actives lie on both sides, screened at 100 nM (by protocol), cells primed 5 h with Pam3CSK4 first
Hit rate of the full screen: of about 53,000 sequences, about 3,700 (7%) were called active.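 The calls were made as follows: active = gene knockdowns whose robust z-score for IL-1 alpha signal is at least 2 or at most -2, so actives lie on both sides; inactive = the rest.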 This is one part of a sample in which actives are shown more often than they occur.
Write down the outcome that applies. Available outcomes: y (active), n (inactive)

Asked: Record lookup: outcome of this test for GGUAUUCUUUGAAGAAAACTT against Tbc1d14 ?
Given back: n

Asked: Record lookup: outcome of this test for GGACGUGACAGACAUUAUUTT against Htr5b ?
Given back: y

Asked: Record lookup: outcome of this test for GGAGUAGUAGCUAUUAUAUTT against Kctd9 ?
Given back: n

Asked: Record lookup: outcome of this test for GGGUGGACUGAAUGCUGAUTT against Qtrt1 ?
Given back: n

Asked: Record lookup: outcome of this test for GGACAACUCGAGUCUUAAATT against Poln ?
Given back: n

Asked: Record lookup: outcome of this test for GGAAGAGGAAGAAAAAAAGTT against Iqcf4 ?
Given back: n

Asked: Record lookup: outcome of this test for CCUGUAGGUGGAAUAAACATT against Awat2 ?
Given back: y

Asked: Record lookup: outcome of this test for GGCCAAGGAAAUAUCAAUGTT against Alg14 ?
Given back: y

Asked: Record lookup: outcome of this test for GGUAUUCUGGCAAGACCACTT against Aatf ?
Given back: n

Asked: Record lookup: outcome of this test for GGGUAAUGGGCCAGUAUCATT against Fam229b ?
Given back: y

Asked: Record lookup: outcome of this test for GGAAGAGAAGUUGUCCAAATT against Creld1 ?
Given back: n

Asked: Record lookup: outcome of this test for GGCUUUGACCCGAAAAGAATT against Tut4 ?
Given back: n

Asked: Record lookup: outcome of this test for GCAUGUUACUAGGAUAACUTT against Mup20 ?
Given back: y

Asked: Record lookup: outcome of this test for GGUCUCCUCCAAGAUGAUGTT against Mettl3 ?
Given back: n

Asked: Record lookup: outcome of this test for CCAUUCCAGUUAUGUCAAUTT against Pus3 ?
Given back: n

Asked: Record lookup: outcome of this test for CCUCGACAUCUAAUGAAGATT against 4933405O20Rik ?
Given back: n

Asked: Record lookup: outcome of this test for GGCCAUAGUCCUGUUCACCTT against Nr2f2 ?
Given back: n

Asked: Record lookup: outcome of this test for GGAUUUAUUUCCGAUUCGATT against Nalcn ?
Given back: n

Asked: Record lookup: outcome of this test for GGGAUUUGCCAAAGAAUAGTT against AI597479 ?
Given back: n

Asked: Record lookup: outcome of this test for GGAGAUUCGGACAAAGUGATT against Rhcg ?
Given back: n

Asked: Record lookup: outcome of this test for GGUGUUUGAUAGGUAUCUUTT against Ptpa ?
Given back: n

Asked: Record lookup: outcome of this test for CGACAAGCUGUACCUCUACTT against Rfx5 ?
Given back: y

Asked: Record lookup: outcome of this test for CCUAAAGGUUCCCAACAGUTT against Serpinb3d ?
Given back: n

Asked: Record lookup: outcome of this test for GCUGCACAUUGUCCAUUAUTT against Car12 ?
Given back: y

Asked: Record lookup: outcome of this test for CCGUUUACCAACCAAGAAUTT against Tnfrsf17 ?
Given back: n

====

- test: Components of the Cytosolic LPS Sensing Pathway: Gene Identification via Genome-wide siRNA Screen;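 also: robust z of the log signal after scaling to non-targeting control siRNA wells of the plate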
- condition-notes: RAW264.7 macrophages, IL-1a HTRF, actives lie on both sides, screened at 100 nM (by protocol), cells primed 5 h with Pam3CSK4 first
The whole screen tested about 53,000 sequences, of which about 3,700 (7%) were called active.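 Rule for the calls: active = gene knockdowns whose robust z-score for IL-1 alpha signal is at least 2 or at most -2, so actives lie on both sides; inactive = the rest.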 The entries come from a sample that favours actives as a whole.
Write down the outcome that applies. Available outcomes: Yes (active), No (inactive)

Asked: Record lookup: outcome of this test for GGGUCCUCUUUAAAAGGCUTT against Smc6 ?
Given back: No

Asked: Record lookup: outcome of this test for GCUCUGAACUCAAUAAUAATT against Atg7 ?
Given back: No

Asked: Record lookup: outcome of this test for GGCCCUGACAGAGGAAAAATT against Impa2 ?
Given back: No

Asked: Record lookup: outcome of this test for CGUGGACUUUAAGGAGCUGTT against Gdf7 ?
Given back: No

Asked: Record lookup: outcome of this test for CCUCCUUUGGACAACGGGUTT against Cyp7a1 ?
Given back: No

Asked: Record lookup: outcome of this test for GGGAUUAUAGGGCGCAUUGTT against Olfr685 ?
Given back: No

Asked: Record lookup: outcome of this test for GGAUGAAAUUGGAAAGGGCTT against Camkk2 ?
Given back: No

Asked: Record lookup: outcome of this test for GGAGAACUGAAGAAUCCAATT against Med11 ?
Given back: No

Asked: Record lookup: outcome of this test for CGACCACAUUAUUGGGUUUTT against Senp8 ?
Given back: Yes

Asked: Record lookup: outcome of this test for GCCACGAAGGUACUAUGUATT against Tbce ?
Given back: No

Asked: Record lookup: outcome of this test for GCCUAAGGGAGACUCUUUGTT against Ano7 ?
Given back: Yes

Asked: Record lookup: outcome of this test for GGGAUUGUAUGAGUGCACATT against Coa4 ?
Given back: No

Asked: Record lookup: outcome of this test for GGGUUCAUAUGUUUUGGAUTT against C130050O18Rik ?
Given back: No

Asked: Record lookup: outcome of this test for GGUCAGAAGAGUUUGCUAATT against Sgms2 ?
Given back: No

Asked: Record lookup: outcome of this test for GGCAGAAAAGAUGGAAAAUTT against Evi5l ?
Given back: Yes

Asked: Record lookup: outcome of this test for GGGACAAGGACUUUAAAAATT against Scamp2 ?
Given back: No

Asked: Record lookup: outcome of this test for GGAACACAGAGGUAAAAGGTT against Olfr446 ?
Given back: Yes

Asked: Record lookup: outcome of this test for CCAUAGUAUUGAUGUCUGCTT against Nat8f2 ?
Given back: No

Asked: Record lookup: outcome of this test for GGUGUCAACAUUGCAUACUTT against Gatad2b ?
Given back: No

Asked: Record lookup: outcome of this test for GGAGAUCGAUGGAGACUUCTT against Sftpa1 ?
Given back: No

Asked: Record lookup: outcome of this test for GCUUUUGUGACUCUGCUGATT against Raver1 ?
Given back: No

Asked: Record lookup: outcome of this test for GCAUACAAAUGCACAUUGATT against Lsg1 ?
Given back: Yes

Asked: Record lookup: outcome of this test for GCUUACUACCAUUGGGAAUTT against Samt2 ?
Given back: No

Asked: Record lookup: outcome of this test for GGGACAGUGGACCAUUAUGTT against Rnf8 ?
Given back: Yes

Asked: Record lookup: outcome of this test for GGACCUGGUCACCAUCUUGTT against Tram2 ?
Given back: No

Asked: Record lookup: outcome of this test for GCAUGAUAUCAGUGGCAAGTT against Itga11 ?
Given back: Yes

Asked: Record lookup: outcome of this test for GGAAACCUCCGAAAGGCAUTT against Rcor1 ?
Given back: No

Asked: Record lookup: outcome of this test for CCUCUUGAGGUCUCGUCAATT against Fam221b ?
Given back: No

Asked: Record lookup: outcome of this test for GGCUGAAGAACUCCUACAATT against Dennd1c ?
Given back: Yes

Asked: Record lookup: outcome of this test for CCUGCUUCUCUACAACCAUTT against Olfr1209 ?
Given back: No

Asked: Record lookup: outcome of this test for GGUCAUCUUCCUUUUUGCUTT against Olfr1501 ?
Given back: No

Asked: Record lookup: outcome of this test for GGAAGUAAAGGGAUUUAACTT against Ankrd46 ?
Given back: Yes

Asked: Record lookup: outcome of this test for GGCAUCCAUGUGCUCUUUCTT against Tex13a ?
Given back: Yes

Asked: Record lookup: outcome of this test for GCCCAUAAACUGAUGGUGGTT against Tbc1d24 ?
Given back: No

Asked: Record lookup: outcome of this test for GGGACCAGAACCACAAACATT against Ghsr ?
Given back: No

Asked: Record lookup: outcome of this test for CCAGAUUGUGUUCACGAUGTT against Rasgrf2 ?
Given back: No

Asked: Record lookup: outcome of this test for CCCACUGGUGUACGUGAUCTT against Bdkrb2 ?
Given back: Yes

Asked: Record lookup: outcome of this test for GGCCAUAGUGAAGAAAGAATT against Plaat3 ?
Given back: No

Asked: Record lookup: outcome of this test for GGAGUUUGUAGCUGACAUCTT against Dcaf15 ?
Given back: No

Asked: Record lookup: outcome of this test for CGGUAUAGUAGAUACUUAATT against Picalm ?
Given back: Yes

Asked: Record lookup: outcome of this test for GGAUAACAGAGAUUUCUCCTT against Il15ra ?
Given back: No

Asked: Record lookup: outcome of this test for GGUAUUUGGAGUACCCUUUTT against Arhgap11a ?
Given back: No

Asked: Record lookup: outcome of this test for CGAAGGCUUCCCUUUUAUCTT against Tmem150b ?
Given back: Yes

Asked: Record lookup: outcome of this test for GGACUCAAUAAGAACCUCGTT against Papss1 ?
Given back: No

Asked: Record lookup: outcome of this test for GCUAUCAAAGCUAAUACAUTT against Mrps9 ?
Given back: Yes

Asked: Record lookup: outcome of this test for GGUAUAUAGGGCUGUGGCUTT against Pigs ?
Given back: No

Asked: Record lookup: outcome of this test for GCGUGUCUUGCUCUUUUGATT against Usp22 ?
Given back: No

Asked: Record lookup: outcome of this test for GGCUCUGAGACACAUCUACTT against Cpt1b ?
Given back: No

Asked: Record lookup: outcome of this test for GGGCCAUCUCUCAAUUAUGTT against Gga2 ?
Given back: No

Asked: Record lookup: outcome of this test for CCUAGGUCAUAUUUCUCCATT against Bgn ?
Given back: No
